System: OVCAR-5 ovarian
PROCEDURE SUMMARY: NCI tumour cell line growth inhibition, 48 h; in the data active = GI50 below about 0.43 µM; inactive = the rest
Permitted responses: t = active, f = inactive

Below are worked cases with known answers.
COc1ccccc1C1C(C#N)=C(N)Oc2n[nH]c(C)c21 (stereo not drawn) ... f
Cc1cc(N(CCOS(C)(=O)=O)CCOS(C)(=O)=O)ccc1C(=O)O ... f
O=C(NNc1ccc(Cl)cc1)C1CCC(CNS(=O)(=O)c2ccccc2Cl)CC1 (stereo not drawn) ... f
COc1cc2c(c(OC)c1OC)-c1ccc(SC)c(=O)cc1[C@@H](NCc1ccc([N+](=O)[O-])cc1)CC2 ... f
Cc1c(C#N)cccc1[C@@H](C)Nc1nnc(C)c2cnc(N3CCOCC3)cc12 ... f
CC(C)N(Cc1ccc(CN(C(=O)CCl)C(C)C)cc1)C(=O)CCl ... f
O=C(NCCCc1cn[nH]c1)c1ccc(-c2ccncc2)c(C#Cc2ccc(F)cc2)c1 ... t

Consider now this further compound.
Outcome logged for COc1ccc(-c2cncn2-c2cc(OC)c(OC)c(OC)c2)cc1 in this assay:
t
